// data source = ChEMBL document CHEMBL1140377

Protein target, amino acids: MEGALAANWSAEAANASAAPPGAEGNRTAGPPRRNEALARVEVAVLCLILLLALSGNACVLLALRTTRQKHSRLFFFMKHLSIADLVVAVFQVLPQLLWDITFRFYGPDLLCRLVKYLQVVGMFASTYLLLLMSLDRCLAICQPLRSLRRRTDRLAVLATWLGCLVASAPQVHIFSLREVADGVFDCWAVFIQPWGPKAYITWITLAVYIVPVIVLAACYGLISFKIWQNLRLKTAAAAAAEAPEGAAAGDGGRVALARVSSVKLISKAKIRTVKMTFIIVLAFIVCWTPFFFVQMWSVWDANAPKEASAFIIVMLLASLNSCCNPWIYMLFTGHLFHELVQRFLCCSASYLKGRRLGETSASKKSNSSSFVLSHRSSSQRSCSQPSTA
Flag rule - Ki less than 100 nM flags rule met; the remaining entries get rule not met.

{"query-smiles": "CC(C)C[C@@H]1C(=O)N[C@H](C2Cc3ccccc3C2)C(=O)N1[C@@H](C(=O)NC(C)C)c1ccc(N(C)C)cc1", "assigned-category": "rule met"}
{"query-smiles": "COc1ccc([C@@H](C(=O)NC(C)(C)C)N2C(=O)[C@@H](C3Cc4ccccc4C3)NC(=O)[C@H]2CC(C)C)cc1", "assigned-category": "rule met"}
{"query-smiles": "CC(C)C[C@@H]1C(=O)N[C@H](C2Cc3ccccc3C2)C(=O)N1[C@@H](C(=O)NC(C)C)c1ccc(F)cc1", "assigned-category": "rule met"}
{"query-smiles": "CC(C)C[C@@H]1C(=O)N[C@H](C2Cc3ccccc3C2)C(=O)N1[C@@H](C(=O)NC(C)(C)C)c1ccc(Cl)cc1", "assigned-category": "rule met"}
{"query-smiles": "c1ccc2c(c1)CNCO2", "assigned-category": "rule met"}
{"query-smiles": "CC(C)C[C@@H]1C(=O)N[C@H](C2Cc3ccccc3C2)C(=O)N1[C@@H](C(=O)NC(C)(C)C)c1ccc(N2CCN(C)CC2)cc1", "assigned-category": "rule met"}
{"query-smiles": "CC(C)C[C@@H]1C(=O)N[C@H](C2Cc3ccccc3C2)C(=O)N1[C@@H](C(=O)NC(C)C)c1ccccc1", "assigned-category": "rule met"}
{"query-smiles": "CC(=O)Nc1ccc([C@@H](C(=O)NC(C)C)N2C(=O)[C@@H](C3Cc4ccccc4C3)NC(=O)[C@H]2CC(C)C)cc1", "assigned-category": "rule not met"}
{"query-smiles": "CC(C)C[C@@H]1CN[C@H](C2Cc3ccccc3C2)C(=O)N1[C@@H](C(=O)NC(C)C)c1ccccc1", "assigned-category": "rule not met"}
{"query-smiles": "COc1ccc([C@H](C(=O)NC(C)(C)C)N2C(=O)[C@@H](C3Cc4ccccc4C3)NC(=O)[C@H]2CC(C)C)cc1", "assigned-category": "rule met"}
{"query-smiles": "CC(C)C[C@@H]1C(=O)N[C@H](C2Cc3ccccc3C2)C(=O)N1[C@H](C(=O)NC(C)C)c1ccc(C(N)=O)cc1", "assigned-category": "rule not met"}
{"query-smiles": "CC(C)C[C@@H]1C(=O)N[C@H](C2Cc3ccccc3C2)C(=O)N1[C@@H](C(=O)NC(C)C)c1ccc(S(C)(=O)=O)cc1", "assigned-category": "rule met"}
{"query-smiles": "CC(C)C[C@@H]1C(=O)N[C@H](C2Cc3ccccc3C2)C(=O)N1[C@@H](C(=O)NC(C)C)c1ccc(C(F)(F)F)cc1", "assigned-category": "rule met"}
{"query-smiles": "CC(C)C[C@@H]1C(=O)N[C@H](C2Cc3ccccc3C2)C(=O)N1[C@@H](C(=O)NC(C)(C)C)c1cccc(N2CCN(C)CC2)c1", "assigned-category": "rule not met"}
